Potency (pM), IL-17-driven IL-6 production in HS27 cells reference
MEASUREMENT_TARGET: human IL-17A (human, UniProt Q16552 24-155)
Sequence (Q16552 24-155): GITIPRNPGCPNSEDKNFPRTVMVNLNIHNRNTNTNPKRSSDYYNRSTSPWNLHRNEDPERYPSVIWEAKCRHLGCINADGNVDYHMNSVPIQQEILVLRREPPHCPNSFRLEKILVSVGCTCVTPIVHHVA
TEST_NAME: cell-based or functional assay
ASSAY_ENDPOINT: Potency (pM), IL-17-driven IL-6 production in HS27 cells

# BINDER, SCALE_UNIT, QUANTITATIVE_READOUT
data = [
    ("ML109-6C6 (antibody, V domains shown, Hybridoma-derived murine mAb; also called 6C6.3B4) VH: QVQLQQSGAELVRPGASVKLSCKASGYTFSDYEIHWVKQTPVHGLAWIGVIHPGNGGTAYNQKFKDKATLTADKSSSTAYMELSSLTSEDSAVYYCERFLTYEGYFDYWGQGTTLTVSS VL: SIVMTQTPKFLLVSAGDRVTITCKASQSVNNDVAWYQHKPGQSPKLLINYASNRYTGVPDRFTGSGYGTDFTFTISTVQAEDLAIYFCQQDYGSPYTFGGGTKLEIKR", "pM", 36),
    ("ML109-8B12 (antibody, V domains shown) VH: QVQLKESGPGLVAPSQSLSITCTISGFSLTSYGVHWVRQPPGKGLEWLVVIWSDGTTTYNSALKSRLSITRDNSKSQVFLKMNSLQTDDTAIYYCARDSTWDYYYTMDYWGQGTPVTVSS VL: DVVMTQTPLSLPVSLGDQASISCRSSQSLVHSNGNTYLHWYLQKPGQSPKLLIYKVSNRFSGVPDRFSGSGSGTDFTLKISRVEAEDLGVYFCSQSTHVYTFGGGTKLEIKR", "pM", 137),
    ("ML109-10G9 (antibody, V domains shown) VH: QVQLKESGPALVAPSQSLSFTCTISGFSLSSYGVHWVRQPPGKGLEWLVVIWSDGTTTYNSALKSRLSISKDNSKSQVFLKMNSLQTDDTAMYYCARDGYYIYTMDYWGQGTSVTVSS VL: DVVMTQTPLSLPVSLGDQASISCRSSQSLVHSNGNTYLHWYLQRPGQSPKLLIYKVSNRFSGVPDRFSGSGSGTDFTLKISRVEAEDLGLYFCSQGTHAPLTFGAGTKLELNR", "pM", 131),
]

Just for reference, patent US20140348834A1 is where these values come from.
